- Test system: Mus musculus
- methodDescription: Activity was measured by rotarod test by intraperitoneal administration in mouse.
- Type: functional
- conditionLabel: ip
measuredProperty: ED50 (mg/kg)
Respond with the bare value in mg/kg.

[
  {
    "compound": "CNC1=Nc2ccc(Cl)cc2C(c2ccccc2)=[N+]([O-])C1 [CHLORDIAZEPOXIDE]",
    "ED50 (mg/kg)": 11
  },
  {
    "compound": "CN1C(=O)CN=C(c2ccccc2)c2cc(Cl)ccc21 [DIAZEPAM]",
    "ED50 (mg/kg)": 1
  },
  {
    "compound": "Cc1nnc2ccc(-c3cccc(C(F)(F)F)c3)nn12 [CI-218872]",
    "ED50 (mg/kg)": 10
  }
]

Data request, read-out ED50, for COCCN(CCOC)c1nn2c(-c3ccc(OC)cc3)nnc2c2ccccc12
60

* * *

- methodDescription: Lethal dose when given intraperitoneally in mice
- Format: toxicity, organism-based
- conditionLabel: mouse, in vivo, ip
# note: exactly 400 mg/kg is not below, so it is NO; use YES for LD50 strictly under it

Look over these answered cases.
[
  {
    "chemicalSmiles": "CNc1nn2c(-c3ccccc3)nnc2c2ccccc12",
    "assignedLabel": "YES"
  },
  {
    "chemicalSmiles": "COc1cc(OC)c(-c2nnc3c4ccccc4c(N4CCCC4)nn23)cc1OC",
    "assignedLabel": "YES"
  },
  {
    "chemicalSmiles": "Nc1nn2c(-c3ccccc3)nnc2c2ccccc12",
    "assignedLabel": "NO"
  },
  {
    "chemicalSmiles": "CCCCNc1nn2c(-c3ccccc3)nnc2c2ccccc12",
    "assignedLabel": "NO"
  }
]

LD50 under 400 mg/kg? Item: CCNc1nn2c(-c3ccccc3)nnc2c2ccccc12
YES

LD50 under 400 mg/kg? Item: COCCN(CCOC)c1nn2c(-c3ccc(N(C)C)cc3)nnc2c2ccccc12
YES

LD50 under 400 mg/kg? Item: COc1ccc(-c2nnc3c4ccccc4c(N4CCCC4)nn23)cc1OC
NO

LD50 under 400 mg/kg? Item: CCN(C)c1nn2c(-c3ccccc3)nnc2c2ccccc12
YES

* * *

Ratio by entry:
- assayTarget: GABA-A receptor; anion channel (Rattus norvegicus) (UniProt O09028+P15431+P18506+P18508+P19969+P20236+P23574+P23576+P28471+P28473+P30191+P62813+P63079+P63138+Q91ZM7+Q9ES14)
- methodDescription: GABA ratio (IC50/IC50 in the presence of 10e-4 GABA).
- Format: protein-complex assay
Hey, just send me the number, nothing else.

[
  {
    "molecule": "COc1ccc(-c2nnc3c4ccccc4c(N(C)CC(C)O)nn23)cc1 (stereo not drawn)",
    "Ratio": 1.4
  },
  {
    "molecule": "COCCN(CCOC)c1nn2c(-c3ccc(Cl)cc3)nnc2c2ccccc12",
    "Ratio": 1.3
  },
  {
    "molecule": "N#Cc1ccc(-c2nnc3c4ccccc4c(N4CCCC4)nn23)cc1",
    "Ratio": 1.1
  },
  {
    "molecule": "CCN(C)c1nn2c(-c3ccccc3)nnc2c2ccccc12",
    "Ratio": 1.1
  },
  {
    "molecule": "COCCN(CCOC)c1nn2c(-c3ccc(F)cc3)nnc2c2ccccc12",
    "Ratio": 1.5
  }
]

Data request, read-out Ratio, for c1ccc(-c2nnc3c4ccccc4c(N4CCOCC4)nn23)cc1
0.95

Data request, read-out Ratio, for c1ccc(-c2nnc3c4ccccc4c(N4CCCCC4)nn23)cc1
1

Data request, read-out Ratio, for CN1CCN(c2nn3c(-c4ccccc4)nnc3c3ccccc23)CC1
0.9

Data request, read-out Ratio, for COCCN(CCOC)c1nn2c(-c3ccc(OC(C)C)cc3)nnc2c2ccccc12
1.8

Data request, read-out Ratio, for COCCNc1nn2c(-c3ccc(OC)cc3)nnc2c2ccccc12
1.1

Data request, read-out Ratio, for COCCN(CCOC)c1nn2c(-c3ccc(O)cc3)nnc2c2ccccc12
1

Data request, read-out Ratio, for COc1ccc(-c2nnc3c4ccccc4c(N4CCCC4)nn23)cc1
1.1

Data request, read-out Ratio, for c1ccc(-c2nnc3c4ccccc4c(N4CCCC4)nn23)cc1
1.1

Data request, read-out Ratio, for Oc1ccc(-c2nnc3c4ccccc4c(N4CCCC4)nn23)cc1
1.1

Data request, read-out Ratio, for COCCN(CCOC)c1nn2c(-c3ccc(OC)cc3)nnc2c2ccccc12
1.83

Data request, read-out Ratio, for CC(=O)Nc1ccc(-c2nnc3c4ccccc4c(N4CCCC4)nn23)cc1
1.1

Data request, read-out Ratio, for NC(=O)c1ccc(-c2nnc3c4ccccc4c(N4CCCC4)nn23)cc1
1.1

Data request, read-out Ratio, for COCCN(CCOC)c1nn2c(-c3ccc(C)cc3)nnc2c2ccccc12
1.9

Source of measurements: ChEMBL document CHEMBL1124125
